Kindly find below pKi information for Prostaglandin E2 receptor EP2 subtype (Homo sapiens, UniProt P43116) taken from the literature.
Worth noting: pKi values are minus log10 of concentrations stated in mol/L.

[in] Please state recorded pKi (tested on Prostaglandin E2 receptor EP2 subtype (Homo sapiens, UniProt P43116)) of "O=C(O)c1ccc(CCN2C(=O)CCN2CC[C@@H](O)Cc2cccc(Br)c2)cc1"
Sequence (P43116 whole entry): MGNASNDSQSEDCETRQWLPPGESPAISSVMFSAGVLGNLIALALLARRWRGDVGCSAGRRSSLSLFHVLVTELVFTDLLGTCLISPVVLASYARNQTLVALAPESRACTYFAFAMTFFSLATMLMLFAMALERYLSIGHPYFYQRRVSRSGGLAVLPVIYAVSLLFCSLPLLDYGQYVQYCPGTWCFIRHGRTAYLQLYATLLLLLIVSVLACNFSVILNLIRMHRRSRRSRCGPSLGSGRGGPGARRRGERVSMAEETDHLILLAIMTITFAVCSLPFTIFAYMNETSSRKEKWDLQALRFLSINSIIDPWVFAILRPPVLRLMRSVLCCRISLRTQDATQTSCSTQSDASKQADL
[out] 5.51

[in] Please state recorded pKi (tested on Prostaglandin E2 receptor EP2 subtype (Homo sapiens, UniProt P43116)) of "C[C@H](NC(=O)c1cc(Cl)cnc1Oc1cccc(F)c1)c1ccc(C(=O)O)cc1"
[out] 5.74

[in] Please state recorded pKi (tested on Prostaglandin E2 receptor EP2 subtype (Homo sapiens, UniProt P43116)) of "O=C(O)CCc1ccccc1-c1cccc(-c2ccccc2COc2ccccc2)c1"
[out] 5.54

[in] Please state recorded pKi (tested on Prostaglandin E2 receptor EP2 subtype (Homo sapiens, UniProt P43116)) of "CCC1([C@@H](O)C/C=C/[C@@H]2[C@@H](C/C=C\CCCC(=O)O)[C@H](Cl)C[C@H]2O)CCC1"
[out] 8.48

[in] Please state recorded pKi (tested on Prostaglandin E2 receptor EP2 subtype (Homo sapiens, UniProt P43116)) of "C[C@H](NC(=O)c1c(Cl)sc(Cl)c1Cc1cccc(Cl)c1)c1ccc(C(=O)O)cc1"
[out] 6.13

[in] Please state recorded pKi (tested on Prostaglandin E2 receptor EP2 subtype (Homo sapiens, UniProt P43116)) of "Cc1cccc(CCCc2ccccc2CCC(=O)O)c1OCc1ccccc1"
[out] 6.03

[in] Please state recorded pKi (tested on Prostaglandin E2 receptor EP2 subtype (Homo sapiens, UniProt P43116)) of "COc1cc(C/C=C/c2ccccc2/C=C/C(=O)O)ccc1OCC[n+]1c(C)cc(/C=C/C=C/c2ccc(N(C)C)cc2)cc1C.F[B-](F)(F)F"
[out] 5.53

[in] Please state recorded pKi (tested on Prostaglandin E2 receptor EP2 subtype (Homo sapiens, UniProt P43116)) of "Cc1cccc(/C=C\Cc2ccccc2C(=O)O)c1OCc1ccccc1.Cc1cccc(C/C=C/c2ccccc2C(=O)O)c1OCc1ccccc1"
[out] 5.15

[in] Please state recorded pKi (tested on Prostaglandin E2 receptor EP2 subtype (Homo sapiens, UniProt P43116)) of "O=C(NS(=O)(=O)CCc1ccccc1-c1ccc(CSCCc2ccccc2)cc1)c1cccs1"
[out] 5.60

[in] Please state recorded pKi (tested on Prostaglandin E2 receptor EP2 subtype (Homo sapiens, UniProt P43116)) of "Cc1cc(O)ccc1-c1cccc([C@H](O)CC[C@H]2CCC(=O)N2CCCCCCC(=O)O)c1"
[out] 4.59

[in] Please state recorded pKi (tested on Prostaglandin E2 receptor EP2 subtype (Homo sapiens, UniProt P43116)) of "CC(C)=C/C=C/[C@H]1CCC(=O)N1CCc1ccc(C(=O)O)cc1"
[out] 5.73

[in] Please state recorded pKi (tested on Prostaglandin E2 receptor EP2 subtype (Homo sapiens, UniProt P43116)) of CC(CCN1CCC(=O)N1CCc1ccc(C(=O)O)cc1)Cc1cccc(CCc2ccccc2)c1 (stereo not drawn)
[out] 6.25

[in] Please state recorded pKi (tested on Prostaglandin E2 receptor EP2 subtype (Homo sapiens, UniProt P43116)) of "O=C(O)CCc1ccccc1-c1csc(-c2ccccc2OCc2ccccc2)c1"
[out] 5.60

----------
Kindly find below Ki information for Prostaglandin E2 receptor EP2 subtype (Homo sapiens, UniProt P43116) taken from the literature.

[in] Param item = Cc1cc(O)ccc1-c1cccc(C(O)/C=C/[C@H]2CCC(=O)N2CCCCCCC(=O)O)c1 (some centres undefined) ; retrieve measured Ki.
[out] > 100 µM

[in] Param item = "CC[C@H](O)/C=C/[C@H]1CCC(=O)N1CCc1ccc(C(=O)O)cc1" ; retrieve measured Ki.
[out] > 10 µM

[in] Param item = "O=C(NCc1ccccc1)NS(=O)(=O)c1ccccc1-c1ccc(CN2C(=O)c3ccccc3CCc3ccccc32)cc1" ; retrieve measured Ki.
[out] > 100 µM

[in] Param item = "C[C@H](NC(=O)c1cc(Cl)cc2ccn(Cc3cccc(Cl)c3)c12)c1ccc(C(=O)O)cc1" ; retrieve measured Ki.
[out] ≥ 0.11 µM

----------
Kindly find below Ki information for Prostaglandin E2 receptor EP2 subtype (Homo sapiens, UniProt P43116) taken from the literature.

[in] Param item = O=C(O)COc1cccc2c1CC[C@](O)(COC(=O)N(c1ccccc1)c1ccccc1)C2O (single isomer, unassigned) ; retrieve measured Ki.
[out] > 1 µM

[in] Param item = "Nc1c(-c2ccccc2)nn(-c2nc(C(=O)O)cs2)c1-c1ccccc1" ; retrieve measured Ki.
[out] > 8.7 µM

[in] Param item = "Cc1sc(C)c(C(=O)NC2(c3ccc(-c4nn[nH]n4)cc3)CC2)c1Cc1ccc(C(F)(F)F)cc1" ; retrieve measured Ki.
[out] > 29 µM

[in] Param item = "C[C@H](NC(=O)c1cccc2ccn(Cc3cccc(C(F)(F)F)c3)c12)c1ccc(C(=O)O)cc1" ; retrieve measured Ki.
[out] ≥ 0.785 µM

[in] Param item = "O=C(O)CCc1ccccc1-c1cccc(-c2ccc(OCc3ccccc3)cc2)c1" ; retrieve measured Ki.
[out] > 97 µM

[in] Param item = "COc1ccc(-c2cc(C(F)(F)F)nn2-c2nc(C(=O)O)cs2)cc1" ; retrieve measured Ki.
[out] > 8 µM

[in] Param item = "Cn1c(C(=O)NC2(c3ccc(C(=O)O)cc3)CC2)c(Nc2cccc(C(F)(F)F)c2)c2ccccc21" ; retrieve measured Ki.
[out] > 8.8 µM

[in] Param item = "O=C(NS(=O)(=O)Cc1ccccc1)c1cccc(C[C@@H]2CCCC=C2c2nc(-c3ccccc3)c(-c3ccccc3)o2)c1" ; retrieve measured Ki.
[out] > 3 µM

[in] Param item = "O=C(O)COc1cccc2c1CC[C@](O)(COC(=O)N(c1ccccc1)c1ccccc1)C2" ; retrieve measured Ki.
[out] > 10 µM

----------
Kindly find below Ki information for Prostaglandin E2 receptor EP2 subtype (Homo sapiens, UniProt P43116) taken from the literature.

[in] Param item = "C[C@H](NC(=O)c1cccc2ccn(Cc3cccc(Cl)c3)c12)c1ccc(C(=O)O)cc1" ; retrieve measured Ki.
[out] ≥ 2.5 µM

[in] Param item = "CC(C)(Cc1ccccc1)C(=O)NS(=O)(=O)c1ccccc1-c1ccc(CN2C(=O)c3ccccc3CCc3ccccc32)cc1" ; retrieve measured Ki.
[out] > 100 µM

[in] Param item = "COc1ccc(Br)cc1S(=O)(=O)NC(=O)/C=C/c1ccccc1Cc1ccc2cc(OCc3ccccc3)ccc2c1" ; retrieve measured Ki.
[out] > 100 µM

[in] Param item = "Cc1sc(C)c(C(=O)NC2(c3ccc(C(=O)O)cc3)CC2)c1Cc1cccc(C(F)(F)F)c1" ; retrieve measured Ki.
[out] > 29.1 µM

[in] Param item = "O=C(O)c1cccc(C[C@@H]2CCCC=C2c2nc(-c3ccccc3)c(-c3ccccc3)o2)c1" ; retrieve measured Ki.
[out] > 3 µM
